Cited source: patent US20150175599A1

Items are presented alongside their recorded IC50.
measured.target: FAAH (Rattus norvegicus)
Construct: For the assay of FAAH activity in rat brain membrane (RBM) homogenates; tissue Charles River (animals); host or cells: rat whole brain, membrane fraction
Sequence (P97612 whole entry): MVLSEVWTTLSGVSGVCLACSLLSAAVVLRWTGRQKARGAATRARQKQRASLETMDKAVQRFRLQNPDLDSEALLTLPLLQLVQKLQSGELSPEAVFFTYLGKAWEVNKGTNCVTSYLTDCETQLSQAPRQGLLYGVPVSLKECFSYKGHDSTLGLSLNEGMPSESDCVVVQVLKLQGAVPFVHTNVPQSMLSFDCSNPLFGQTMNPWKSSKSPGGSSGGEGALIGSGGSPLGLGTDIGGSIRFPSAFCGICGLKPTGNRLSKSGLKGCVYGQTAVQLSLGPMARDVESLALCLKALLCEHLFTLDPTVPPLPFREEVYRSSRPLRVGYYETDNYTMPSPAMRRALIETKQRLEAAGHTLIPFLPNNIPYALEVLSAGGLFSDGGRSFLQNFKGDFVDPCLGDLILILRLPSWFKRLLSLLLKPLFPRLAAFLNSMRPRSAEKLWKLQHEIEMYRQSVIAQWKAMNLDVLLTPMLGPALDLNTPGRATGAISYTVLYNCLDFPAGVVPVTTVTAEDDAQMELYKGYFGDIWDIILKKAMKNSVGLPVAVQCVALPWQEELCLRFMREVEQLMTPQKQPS
test.method.notes: FAAH inhibition, rat brain membrane homogenate assay
Type: biochemical
cond: rat brain homogenate; average activity; read-out: Rat Brain Extract FAAH IC50

The following compounds have reported results that may help.
- compound: "COc1cc(NC(=O)C(=O)c2c(C)n(Cc3ccc(Cl)cc3)c3ccc(N(C)C(=O)OC(C)(C)C)cc23)ccn1 [Compound 7]"
  IC50: "100 to 1000 nM"
- compound: "COc1cc(NC(=O)C(=O)c2c(C)n(Cc3ccc(Cl)cc3)c3ccc(C(C)=O)cc23)ccn1 [Compound 5]"
  IC50: "< 100 nM"
- compound: "COc1cc(NC(=O)C(=O)c2c(C)n(Cc3ccc(Cl)cn3)c3ccccc23)ccn1 [Compound 68]"
  IC50: "< 100 nM"
- compound: "COc1ccc2c(c1)c(C(=O)C(=O)Nc1ccnc(OC)c1)c(C)n2Cc1ncc(F)cc1F [Compound 81]"
  IC50: "< 100 nM"

Sample COc1ccc2c(c1)c(C(=O)C(=O)Nc1ccnc(OC)c1)c(C)n2Cc1ccc(S(C)(=O)=O)cc1 [Compound 39] ; IC50 observed: 1000 to 10000 nM

Sample COc1ccc(Cn2c(C)c(C(=O)C(=O)Nc3ccnc(OC)c3)c3cc(C)ccc32)nc1 [Compound 69] ; IC50 observed: < 100 nM

Sample COc1ccc2c(c1)c(C(=O)C(=O)Nc1cc(Cl)nc(OC)c1)c(C)n2Cc1ccc(Cl)cc1 [Compound 47] ; IC50 observed: < 100 nM

Sample COc1cc(NC(=O)C(=O)c2c(C)n(Cc3ccc(Cl)cn3)c3ncc(C)cc23)ccn1 [Compound 75] ; IC50 observed: < 100 nM
